The following binders are shown together with reported EC50 values.
Biological target: T1, Peptide-13 (cysteine pairing not given here; also: biotinylated (site not given here))
T1 peptide: VDFCELYRWPICNS
Experiment: ELISA, Fab on captured biotin-peptide
Where no end group is shown, it is not given here.
Could you give me the number in nM? Just the number is fine.

INSERT INTO measurements (binder, outcome_measure, reported) VALUES
  ('TBD-22 (HC D109A) (Fab, V domains shown, Fab; also called HC D109A mutant) VH: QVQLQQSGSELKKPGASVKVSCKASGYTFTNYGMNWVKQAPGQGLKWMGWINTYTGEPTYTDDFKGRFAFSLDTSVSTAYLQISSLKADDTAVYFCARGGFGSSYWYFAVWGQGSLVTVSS VL: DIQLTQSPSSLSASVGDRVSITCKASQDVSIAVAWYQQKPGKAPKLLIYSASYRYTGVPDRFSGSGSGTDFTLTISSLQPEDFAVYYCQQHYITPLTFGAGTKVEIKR', 'EC50', 3.9),
  ('TBD-6 (LC I93A) (Fab, V domains shown, Fab; also called LC I93A mutant) VH: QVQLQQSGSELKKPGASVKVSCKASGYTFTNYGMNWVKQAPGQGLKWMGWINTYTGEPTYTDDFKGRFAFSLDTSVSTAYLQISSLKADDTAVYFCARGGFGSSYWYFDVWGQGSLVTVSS VL: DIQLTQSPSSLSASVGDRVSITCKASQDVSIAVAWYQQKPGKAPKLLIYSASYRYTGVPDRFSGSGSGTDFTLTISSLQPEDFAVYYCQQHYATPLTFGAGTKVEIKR', 'EC50', 21.4),
  ('TBD-17 (HC S104A) (Fab, V domains shown, Fab; also called HC S104A mutant) VH: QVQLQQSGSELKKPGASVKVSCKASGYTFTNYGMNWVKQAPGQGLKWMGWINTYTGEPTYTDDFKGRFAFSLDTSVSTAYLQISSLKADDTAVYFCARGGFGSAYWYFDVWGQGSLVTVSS VL: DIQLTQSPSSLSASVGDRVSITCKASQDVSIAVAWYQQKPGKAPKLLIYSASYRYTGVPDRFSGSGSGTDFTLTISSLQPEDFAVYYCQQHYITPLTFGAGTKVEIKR', 'EC50', 10);

Let me know recorded EC50 for TBD-21 (HC F108A) (Fab, V domains shown, Fab; also called HC F108A mutant) VH: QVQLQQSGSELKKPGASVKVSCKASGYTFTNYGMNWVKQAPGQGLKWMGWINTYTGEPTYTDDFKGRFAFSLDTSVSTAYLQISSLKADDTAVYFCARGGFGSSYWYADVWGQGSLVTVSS VL: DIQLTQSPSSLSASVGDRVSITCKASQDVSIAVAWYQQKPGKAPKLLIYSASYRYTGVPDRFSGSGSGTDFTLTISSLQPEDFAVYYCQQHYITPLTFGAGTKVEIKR , thanks.
22.6

Let me know recorded EC50 for TBD-11 (HC R98A) (Fab, V domains shown, Fab; also called HC R98A mutant) VH: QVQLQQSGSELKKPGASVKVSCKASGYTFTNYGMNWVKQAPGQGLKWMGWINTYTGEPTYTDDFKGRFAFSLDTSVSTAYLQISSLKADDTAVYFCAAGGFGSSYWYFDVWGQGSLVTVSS VL: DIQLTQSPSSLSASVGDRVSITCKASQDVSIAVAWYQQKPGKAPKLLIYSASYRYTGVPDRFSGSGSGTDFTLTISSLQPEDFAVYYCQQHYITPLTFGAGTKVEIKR , thanks.
388

Let me know recorded EC50 for TBD-1 wt (Fab, V domains shown, Fab; the heavy chain entry is VH-CH1; also called wild-type anti-TROP2 Fab (hRS7); TROP2 Fab) VH: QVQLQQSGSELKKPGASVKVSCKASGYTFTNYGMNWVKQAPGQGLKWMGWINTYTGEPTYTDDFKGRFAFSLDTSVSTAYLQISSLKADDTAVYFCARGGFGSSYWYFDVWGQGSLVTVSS VL: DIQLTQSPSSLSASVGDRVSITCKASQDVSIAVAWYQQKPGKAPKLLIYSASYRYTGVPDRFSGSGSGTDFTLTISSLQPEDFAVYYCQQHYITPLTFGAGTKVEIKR , thanks.
157
